Answer each item with its documented change in vivo at 1 mg/kg.
- procedure_details: changing rate of blood pressure and heart rate by intravenous injection in anesthetized rats
- Format: in vivo, Wister male rats
- run_conditions: Rattus norvegicus, 1 (mg/kg), Table 1, read-out: changing rate of blood pressure

Exercise: Form field: reported change in vivo at 1 mg/kg of CCCCC(F)C(=O)CC[C@H]1[C@H](O)CC(=O)[C@@H]1C/C=C\CCCC(=O)O (some centres unmarked) [Compound 36, 13,14-dihydro-15-keto-16R,S-fluoro-PGE2]
Key: 33%

Exercise: Similarly, CCC[C@H](C)CC(=O)CC[C@H]1[C@H](O)CC(=O)[C@@H]1C/C=C\CCCC(=O)OC ?
Key: 12%

Exercise: Let us now turn to CCCCCC(=O)CC[C@H]1[C@H](O)CC(=O)[C@@H]1C/C=C\CC(C)CC(=O)OC (some centres unmarked)
Key: 12%

Exercise: Lookup CCCCCC(=O)CC[C@H]1[C@H](C)CC(=O)[C@@H]1CC(=O)CCCCC(=O)OC
Key: 46%

Exercise: Please give the result for CCCCCC(=O)CC[C@H]1[C@H](O)CC(=O)[C@@H]1C/C=C\CCCC(=O)OC [Compound 21, 13,14-dihydro-15-keto-PGE2 methyl ester] too.
Key: 18%

Exercise: // next record CCOC(=O)CCCCC(=O)C[C@H]1C(=O)C[C@@H](O)[C@@H]1CCC(=O)CCCC(C)C
Key: 12%

Exercise: CCCCCC(=O)CC[C@H]1[C@H](O)CC(=O)[C@@H]1C/C=C\CC(C)CC(=O)OCC (some centres unmarked) ?
Key: 7%

Exercise: Next compound: CC(C)=CCCCCC(=O)CC[C@H]1[C@H](O)CC(=O)[C@@H]1C/C=C\CCCC(=O)O
Key: 2%

Exercise: Can you check CCOC(=O)CCC/C=C\C[C@H]1C(=O)C[C@@H](O)[C@@H]1CCC(=O)CCCC(C)C next?
Key: 20%

Exercise: Next compound: COC(=O)CCCCC(=O)C[C@H]1C(=O)C[C@@H](O)[C@@H]1CCC(=O)CCCC(C)C
Key: 12%

Exercise: And then CCCCCC(=O)CC[C@H]1[C@H](O)CC(=O)[C@@H]1C/C=C\CCCC(=O)OCc1ccccc1 [Compound 25, 13,14-dihydro-15-keto-PGE2 benzyl ester] , what is it?
Key: 2%

Exercise: Cool, now CCCCCC(=O)CC[C@H]1[C@H](O)CC(=O)[C@@H]1CCCCCCC(=O)O [Compound 1, 13,14-dihydro-15-keto-PGE1, reference compound]
Key: -6%

Exercise: CCCCC(F)C(=O)CC[C@H]1[C@H](O)CC(=O)[C@@H]1CC(=O)CCCCC(=O)OCC (some centres unmarked) ?
Key: 11%

Exercise: Repeat with CCCCCC(=O)CC[C@H]1[C@H](C)CC(=O)[C@@H]1CC(=O)CCCCC(=O)OCC
Key: 18%

---

- procedure_details: acute toxicity LD50
- Type: in vivo
- run_conditions: mouse, in vivo; IV, male mice; read-out: LD50
measured_attribute: LD50

Exercise: Which LD50 value is on record for CCCCCC(=O)CC[C@H]1[C@H](O)CC(=O)[C@@H]1C/C=C\CCCC(=O)OC [Compound 21, 13,14-dihydro-15-keto-PGE2 methyl ester] ?
Key: > 1000 mg/kg

Exercise: Similarly, CCOC(=O)CCCCC(=O)C[C@H]1C(=O)C[C@@H](O)[C@@H]1CCC(=O)CCCC(C)C ?
Key: > 300 mg/kg

---

- procedure_details: recovery of blood pressure and heart rate of rats in hemorrhage shock
- Assay type: in vivo, Wister male rats
- run_conditions: 0.5 mg/kg; intravenous, dehematized rats
measured_attribute: recovering of blood pressure % (%)
// return numeric value only (unit: %, not printed)

Exercise: recovering of blood pressure % lookup needed for CCOC(=O)CCCCC(=O)C[C@H]1C(=O)C[C@@H](O)[C@@H]1CCC(=O)CCCC(C)C [Compound 15] , thanks.
Key: 39

Exercise: Same for CCCCCC(=O)CC[C@H]1[C@H](O)CC(=O)[C@@H]1C/C=C\CCCC(=O)OCC [Compound 22, 13,14-dihydro-15-keto-PGE2 ethyl ester]
Key: 32

Exercise: Entry CCCCCC(=O)CC[C@H]1[C@H](O)CC(=O)[C@@H]1CC(=O)CCCCC(=O)OCC [Compound 7] please
Key: 38

Exercise: What do you have for CCCCCC(=O)CC[C@H]1[C@H](C)CC(=O)[C@@H]1CC(=O)CCCCC(=O)OCC [Compound 18] ?
Key: 87

---

- procedure_details: changing rate of blood pressure and heart rate by intravenous injection in anesthetized rats
- Format: in vivo, Wister male rats
- run_conditions: Rattus norvegicus, 1 (mg/kg), Table 1, read-out: changing rate of blood pressure
measured_attribute: change in vivo at 1 mg/kg (%)
Number in %, nothing else.

Exercise: Consider the compound CCCCC(F)C(=O)CC[C@H]1[C@H](O)CC(=O)[C@@H]1C/C=C\CCCC(=O)OCC (stereo partly drawn) and give its measured change in vivo at 1 mg/kg.
Key: 14

Exercise: Likewise for CCCCC[C@H](O)/C=C/[C@H]1[C@H](O)CC(=O)[C@@H]1C/C=C\CCCC(=O)O [Compound 57, PGE2, reference compound] ?
Key: -39

Exercise: Next compound up: COCCCCC(C)(C)C(=O)CC[C@H]1[C@H](O)CC(=O)[C@@H]1C/C=C\CCCC(=O)OC
Key: 15

---

I'd appreciate it if you could supply LD50 values for the items below.
- procedure_details: acute toxicity LD50
- Assay type: in vivo
- run_conditions: mouse, in vivo; IP, male mice; read-out: LD50

Exercise: Entry CCCCCC(=O)CC[C@H]1[C@H](O)CC(=O)[C@@H]1C/C=C\CCCC(=O)OCC [Compound 22, 13,14-dihydro-15-keto-PGE2 ethyl ester] : reported LD50 = ?
Key: > 500 mg/kg

Exercise: For CCCCCC(=O)CC[C@H]1[C@H](O)CC(=O)[C@@H]1CCCCCCC(=O)OCC [Compound 2, 13,14-dihydro-15-keto-PGE1 ethyl ester] then?
Key: > 1000 mg/kg

---

- procedure_details: acute toxicity LD50
- Assay type: in vivo
- run_conditions: mouse, in vivo; SC, male mice; read-out: LD50
measured_attribute: LD50

Exercise: Which LD50 is reported for this compound? CCCCCC(=O)CC[C@H]1[C@H](O)CC(=O)[C@@H]1C/C=C\CCCC(=O)OCC [Compound 22, 13,14-dihydro-15-keto-PGE2 ethyl ester]
Key: > 1000 mg/kg
